assay: Absorbance at photostationary state (PSS) under simulated sunlight or 365 nm light; type: physicochemical; settings: ratio of PSS under 365 nm light to PSS under full spectrum light (without UV blocking film)
measurement.type: sensitivity index

1) Cc1ccc(-c2ccc(-c3cc(C4=C(c5cc(-c6ccc(-c7ccc(C)s7)s6)sc5-c5ccc(C)s5)C(F)(F)C(F)(F)C4(F)F)c(-c4ccc(C)s4)s3)s2)s1 1.73
2) CC(C)(C)c1ccc(-c2cc(C3=C(c4cc(-c5ccc(C(C)(C)C)cc5)sc4-c4cccs4)C(F)(F)C(F)(F)C3(F)F)c(-c3cccs3)s2)cc1 2.49
3) CC(C)(C)c1ccc(-c2cc(C3=C(c4cc(-c5ccc(C(C)(C)C)s5)sc4-c4ccc(N5CCOCC5)cc4)C(F)(F)C(F)(F)C3(F)F)c(-c3ccc(N4CCOCC4)cc3)s2)s1 1.14
4) COc1ccc(-c2oc3cc(OC)ccc3c2C2=C(c3c(-c4ccc(OC)cc4)oc4cc(OC)ccc34)C(F)(F)C(F)(F)C2(F)F)cc1 4.25
5) FC1(F)C(c2cc(-c3ccccc3)sc2-c2ccccc2)=C(c2cc(-c3ccc(Cl)cc3)sc2-c2ccccc2)C(F)(F)C1(F)F 3.71
6) N#Cc1ccc(-c2cc(C3=C(c4cc(-c5ccc(C#N)cc5)sc4-c4ccc(C#N)cc4)C(F)(F)C(F)(F)C3(F)F)c(-c3ccc(C#N)cc3)s2)cc1 2.74

----------
Consider the following molecules and their measured λ max readings.
test: Absorbance at photostationary state (PSS) under simulated sunlight or 365 nm light; format: physicochemical; set-up: unit not given here; settings: wavelength of maximum absorbance in the visible range, ring-closed isoform; 2.0×10^−5 M in triglyme
measurement.type: λ max

1) Cc1cc(-c2cc(C3=C(c4cc(-c5cc(C)c(C)s5)sc4-c4cc(C)c(C)s4)C(F)(F)C(F)(F)C3(F)F)c(-c3cc(C)c(C)s3)s2)sc1C 655
2) CC(C)(C)c1ccc(-c2cc(C3=C(c4cc(-c5ccc(C(C)(C)C)cc5)sc4-c4ccc(C(C)(C)C)cc4)C(F)(F)C(F)(F)C3(F)F)c(-c3ccc(C(C)(C)C)cc3)s2)cc1 612
3) COc1ccc2c(C3=C(c4c(-c5ccc(C(C)(C)C)cc5)oc5cc(OC)ccc45)C(F)(F)C(F)(F)C3(F)F)c(-c3ccc(C(C)(C)C)cc3)oc2c1 514
4) CC(C)(C)c1ccc(-c2oc3cc4c(cc3c2C2=C(c3c(-c5ccc(C(C)(C)C)cc5)oc5cc6c(cc35)OCO6)C(F)(F)C(F)(F)C2(F)F)OCO4)cc1 588
5) COCCC[Si](CCCOC)(CCCOC)c1ccc(-c2cc(C3=C(c4cc(-c5ccc([Si](CCCOC)(CCCOC)CCCOC)s5)sc4-c4ccc([Si](CCCOC)(CCCOC)CCCOC)s4)C(F)(F)C(F)(F)C3(F)F)c(-c3ccc([Si](CCCOC)(CCCOC)CCCOC)s3)s2)s1 650
6) COc1ccc(-c2cc(C3=C(c4cc(-c5ccc(OC)cc5)sc4-c4ccc(C#N)cc4)C(F)(F)C(F)(F)C3(F)F)c(-c3ccc(C#N)cc3)s2)cc1 610

----------
experiment: Absorbance at photostationary state (PSS) under simulated sunlight or 365 nm light; assay type: physicochemical; set-up: unit not given here; conditions: wavelength of maximum absorbance in the visible range, ring-closed isoform; 2.0×10^−5 M in triglyme
Consider the following molecules and their measured λ max readings.

molecule	λ max
COc1ccc(-c2cc(C3=C(c4cc(-c5ccc(OC)s5)sc4-c4ccc(OC)s4)C(F)(F)C(F)(F)C3(F)F)c(-c3ccc(OC)s3)s2)s1 [S020]	665
N#Cc1ccc(-c2cc(C3=C(c4cc(-c5ccc(C#N)cc5)sc4-c4ccc(C#N)cc4)C(F)(F)C(F)(F)C3(F)F)c(-c3ccc(C#N)cc3)s2)cc1 [S074]	620
CC(C)(C)COc1ccc(-c2cc(C3=C(c4cc(-c5ccc(OCC(C)(C)C)cc5)sc4-c4ccc(OCC(C)(C)C)cc4)C(F)(F)C(F)(F)C3(F)F)c(-c3ccc(OCC(C)(C)C)cc3)s2)cc1 [S095]	625
COc1ccc(-c2sc(-c3ccc(/C=C/c4ccccc4)cc3)cc2C2=C(c3cc(-c4ccc(/C=C/c5ccccc5)cc4)sc3-c3ccc(OC)cc3)C(F)(F)C(F)(F)C2(F)F)cc1 [S088]	656
Cc1sc(-c2cc(C3=C(c4cc(-c5sc(C)c6c5OCCO6)sc4-c4sc(C)c5c4OCCO5)C(F)(F)C(F)(F)C3(F)F)c(-c3sc(C)c4c3OCCO4)s2)c2c1OCCO2 [S036]	665
CC(C)Oc1ccc(-c2cc(C3=C(c4cc(-c5ccc(OC(C)C)cc5)sc4-c4ccc(OC(C)C)cc4)C(F)(F)C(F)(F)C3(F)F)c(-c3ccc(OC(C)C)cc3)s2)cc1 [S092]	627
COc1ccc(-c2cc(C3=C(c4cc(-c5ccc(OC)cc5)sc4-c4ccc(OC)cc4)C(F)(F)C(F)(F)C3(F)F)c(-c3ccc(OC)cc3)s2)cc1 [S054]	630
CCOCCOCCOCCOc1ccc(-c2sc(-c3ccc(C(C)(C)C)s3)cc2C2=C(c3cc(-c4ccc(C(C)(C)C)s4)sc3-c3ccc(OCCOCCOCCOCC)cc3)C(F)(F)C(F)(F)C2(F)F)cc1 [S109]	645
FC1(F)C(c2cc(-c3ccccc3)sc2-c2ccccc2)=C(c2cc(-c3cccs3)sc2-c2cccs2)C(F)(F)C1(F)F [S005]	618
COc1ccc2c(C3=C(c4c(-c5ccc(-c6ccc(C(C)(C)C)s6)s5)oc5cc(OC)ccc45)C(F)(F)C(F)(F)C3(F)F)c(-c3ccc(-c4ccc(C(C)(C)C)s4)s3)oc2c1 [S152]	522
Cc1ccc(-c2ccc(-c3cc(C4=C(c5cc(-c6ccc(-c7ccc(C)s7)s6)sc5-c5ccc(C)s5)C(F)(F)C(F)(F)C4(F)F)c(-c4ccc(C)s4)s3)s2)s1 [S034]	690

----------
experiment: Absorbance at photostationary state (PSS) under simulated sunlight or 365 nm light; type: physicochemical; set-up: unit not given here; conditions: wavelength of maximum absorbance in the visible range, ring-closed isoform; 2.0×10^−5 M in triglyme
Answer class 0 if λ max is under 600, and class 1 if it is 600 or more.

1. COCCOCCOCCOc1ccc(-c2sc(-c3ccc(C(C)(C)C)s3)cc2C2=C(c3cc(-c4ccc(C(C)(C)C)s4)sc3-c3ccc(OCCOCCOCCOC)cc3)C(F)(F)C(F)(F)C2(F)F)cc1 class 1
2. N#Cc1ccc(-c2ccc(-c3cc(C4=C(c5cc(-c6ccc(-c7ccc(C#N)s7)s6)sc5-c5cccs5)C(F)(F)C(F)(F)C4(F)F)c(-c4cccs4)s3)s2)s1 class 1
3. COc1ccc(-c2sc(-c3ccc(OCCOc4ccc(N(c5ccc(Cl)cc5)c5ccc(Cl)cc5)cc4)cc3)cc2C2=C(c3cc(-c4ccc(OCCOc5ccc(N(c6ccc(Cl)cc6)c6ccc(Cl)cc6)cc5)cc4)sc3-c3ccc(OC)cc3)C(F)(F)C(F)(F)C2(F)F)cc1 class 1
4. FC1(F)C(c2c(-c3ccccc3)sc3ccccc23)=C(c2c(-c3ccccc3)sc3ccccc23)C(F)(F)C1(F)F class 0
5. c1ccc(-c2cc(-c3nc(-c4ccccc4)sc3-c3cc(-c4ccccc4)sc3-c3ccccc3)c(-c3ccccc3)s2)cc1 class 1

----------
Consider the following compounds and their measured Absorbance at PSS, 365 nm readings.
experiment: Absorbance at photostationary state (PSS) under simulated sunlight or 365 nm light; type: physicochemical; settings: 365 nm light source; 2.0×10^−5 M in triglyme

compound	Absorbance at PSS, 365 nm
CCCCCCCCc1ccc(-c2oc3ccccc3c2C2=C(c3c(-c4ccc(CCCCCCCC)cc4)oc4ccccc34)C(F)(F)C(F)(F)C2(F)F)cc1 [S079]	0.17
COCCC[Si](CCCOC)(CCCOC)c1ccc(-c2sc(-c3ccc(C(C)(C)C)s3)cc2C2=C(c3cc(-c4ccc(C(C)(C)C)s4)sc3-c3ccc([Si](CCCOC)(CCCOC)CCCOC)s3)C(F)(F)C(F)(F)C2(F)F)s1 [S158]	0.394
CC(C)(C)c1ccc(-c2cc(C3=C(c4cc(-c5ccc(C(C)(C)C)s5)sc4-c4ccc(OCCCCC#N)cc4)C(F)(F)C(F)(F)C3(F)F)c(-c3ccc(OCCCCC#N)cc3)s2)s1 [S139]	0.403
FC1(F)C(c2cc(-c3ccccc3)sc2-c2ccccc2)=C(c2cc(-c3cccs3)sc2-c2cccs2)C(F)(F)C1(F)F [S005]	0.195
Oc1ccc(-c2cc(C3=C(c4cc(-c5ccc(O)cc5)sc4-c4ccc(O)cc4)C(F)(F)C(F)(F)C3(F)F)c(-c3ccc(O)cc3)s2)cc1 [S084]	0.23
CC(C)(C)c1ccc(-c2sc(-c3ccccc3)cc2C2=C(c3cc(-c4ccccc4)sc3-c3ccc(C(C)(C)C)cc3)C(F)(F)C(F)(F)C2(F)F)cc1 [S057]	0.204

Taken from patent US10072023B2.
